- assayNotes: soluble on expression in E. coli; label from the status in PepcDB or PDB records
valueType: soluble on expression in E. coli

Use these answered entries as a reference point.
Please report soluble on expression in E. coli for the following sequence: MSMLPTFGFTQEQVACVCEVLQQGGNIERLGRFLWSLPACEHLHKNESVLKAKAVVAFHRGNFRELYKILESHQFSPHNHAKLQQLWLKAHYIEAEKLRGRPLGAVGKYRVRRKFPLPRSIWDGEETSYCFKEKSRSVLREWYAHNPYPSPREKRELTEATGLTTTQVSNWFKNRRQRDRAAEAKERENNENSNSNSHNPLNGSGKSVLGSSEDEKTPSGTPDHSSSSPALLLSPPPPGLPSLHSLGHPPGPSAVPVPVPGGGGADPLQHHHGLQDSILNPMSANLVDLGS soluble

Please report soluble on expression in E. coli for the following sequence: MTKMSITVNQTVLHQLVKNVDGDSIKMESVLRDELLSITPEVEQMMLQLHQSYQNKAKAFGVFQEKSIFAQHLNRLLEQEIEFLGFSQYSTKLLADELGKYNFAESGTLILCQYNFLATDYLFIALLDSRHSMLVDEHLDIRRTEYLDITQFDIAARINLTDLQVNANSNRYLTFIKGRVGRKISDFFMDFLGAEEGLNPQVQNQCLLQAVSDYCDQGELNKEQTQAVKKQVFEYCKGQLSNGNNIELRELSDSLPTLNEQPFVVFTEKQNYGLEESIPPIRSTLKSLTKFSGSGKGVTLSFDAELLNTRIQWDPMTDTLTIKGLPPNLKDQLQKALKSENLEHHHHHH soluble

Please report soluble on expression in E. coli for the following sequence: MNMIDQLNITDFQVFTDENSDKFVSKIYKFSSKMILSDFHAQPQGFLNGGASLALAEITAGMASNAIGSGQYFAFGQSINANHLNPKKCEGFVNARGLLLKNGKRNHVWEIKITDENETLISQITVVNALVPQKNSDKLEHHHHHH soluble

Please report soluble on expression in E. coli for the following sequence: MSLTWFDLVTPKSVMFFKPFIEELKRRDREVLVTAREGEGYSEVVELLNLYKIPFFNRGGFGGAKLCDKLKASIHRQLELMEFIEQHSIKRLVCLCSVDANRVAFGLGIPIVNFYDIPLSDYKTDFRRALPQARLTLPLSNKAFRPFMVPEEIFFRFGLEHDQIFEYGFLDVVAWLRDFQPSREFYEKVLKDYGLDTSLPTIVVREEEYKASYVMKKYPILYEGLKVLKERLRANILVIPRYEPEAVAELLPFAKVLKEKIVIQHILAYCDLFIGGGGTLNSEACFFGTPTISTRSFVSHYDKFLMDLALMDKVDSIEELIIKAERIIGNRNGYAKQIFDRMEFDVGSMVDEILKEKEGAEGHHHHHH soluble

Please report soluble on expression in E. coli for the following sequence: MPTNCAAAGCATTYNKHINISFHRFPLDPKRRKEWVRLVRRKNFVPGKHTFLCSKHFEASCFDLTGQTRRLKMDAVPTIFDFCTHI soluble

Next:
Please report soluble on expression in E. coli for the following sequence: MSLKKTEKAYEVKRAFNNNIVLVDDDEKEIILFAKGIGFNCKKGSIIPENTNIEKIFTIQDENNIANFRRVVGSNDEKFIAFCEELILEISRDFSEELNEIIHIGLIDHISFAIERMKKGEILRNPFLVEIETLYPKEFEAATKMVKKLEDFTGVSIVDDEIGFIAMHIHSARTTGKISHTIKFTYIANTAVEYIEDAFNIEVDRTSLSYARFISHLRFAIERLINNTPVKNELLSIIKLKYPESFKVAEEIGKAINEDFSLEVAEDEIGYLALHVERIRKNEGHHHHHH soluble

Please report soluble on expression in E. coli for the following sequence: MIGGSGRFLVNLESLNGVESIGNLTKHRTAPVVLKTSTGYLVRYVPVISGEALAHAYQASLVDIAKKEGLPVGNLSSQYEFIKFSTDEALKIEGIKEPKDYNDARRFEVEVMLKDVIADVGGFMYAGSAPVRRTSRIKLGYMIPALRGDEIPAQLEAQFHVRFSNKPVKGSQAIFNVEVSSALYTFSFELDEDLIAVPSTVGEKVKGEEELERQKARRVDSAIKALYSLLAGNFGGKRSRFLPSMKLMSLVVVKTDFPFIPEPGHDDSYIKTTVMRLEKAKSVLNGNVAKVYVINNEGIEVGEGATVLSSVEDLVAKLKEK not soluble

Please report soluble on expression in E. coli for the following sequence: MAYDLAVPGPIMQEVAQYLASLSGKAVVINIFAGHADRSLSQTQLAELLDKLLARHPGSAVILLDHRREIRIPLPPEVVINPFNTLHHAMALIAQAELIISPDTSVVHMAAAWNKPLIAVYKDVLLNNRLWAPGYDNARQIIVKCGKVHQHRGLVDRIIAALPETLLEHHHHHH not soluble

Please report soluble on expression in E. coli for the following sequence: NFNSQNGVNKDEKDHLIERLYREISGLKAQLENMKTESQRVVLQLKGHVSELEADLAEQQHLRQQAADDCEFLRAELDELRRQREDTEKAQRSLSEIERKAQANEQRYSKLKEKYSELVQ soluble

Values were extracted from the DeepSol protein solubility set.
